# System: CCRF-CEM
# Test Protocol: Cytotoxicity against human CCRF-CEM cells after 3 days by XTT assay
# Assay type: functional, cell-based
# Protocol Conditions: 72 h
pIC50: −log10 of the molar value.
Experimental Readout: pIC50

[[record]]
mol_smiles = "OC[C@H]1O[C@@H](n2cc(F)c3c(-c4ccccc4)ncnc32)[C@H](O)[C@@H]1O"
assay_target = "CCRF-CEM"
prefix_operator = "="
value_reported = 5.51

[[record]]
mol_smiles = "OC[C@H]1O[C@@H](n2ccc3c(-c4ccc(F)cc4)ncnc32)[C@H](O)[C@@H]1O"
assay_target = "CCRF-CEM"
prefix_operator = "="
value_reported = 4.63

[[record]]
mol_smiles = "OC[C@H]1O[C@@H](n2cc(Cl)c3c(-c4cccs4)ncnc32)[C@H](O)[C@@H]1O"
assay_target = "CCRF-CEM"
prefix_operator = "="
value_reported = 5.57

[[record]]
mol_smiles = "OC[C@H]1O[C@@H](n2cc(F)c3c(-c4ccsc4)ncnc32)[C@H](O)[C@@H]1O"
assay_target = "CCRF-CEM"
prefix_operator = "="
value_reported = 6.25

[[record]]
mol_smiles = "COc1ccc(-c2ncnc3c2ccn3[C@@H]2O[C@H](CO)[C@@H](O)[C@H]2O)cc1"
assay_target = "CCRF-CEM"
prefix_operator = "="
value_reported = 4.96

[[record]]
mol_smiles = "OC[C@H]1O[C@@H](n2ccc3c(-c4ccccn4)ncnc32)[C@H](O)[C@@H]1O"
assay_target = "CCRF-CEM"
prefix_operator = "="
value_reported = 5.82

[[record]]
mol_smiles = "OC[C@H]1O[C@@H](n2ccc3c(-c4ccsc4)ncnc32)[C@H](O)[C@@H]1O"
assay_target = "CCRF-CEM"
prefix_operator = "="
value_reported = 5.40

[[record]]
mol_smiles = "OC[C@H]1O[C@@H](n2ccc3c(-c4cccnc4)ncnc32)[C@H](O)[C@@H]1O"
assay_target = "CCRF-CEM"
prefix_operator = "<"
value_reported = 5.00

[[record]]
mol_smiles = "OC[C@H]1O[C@@H](n2ccc3c(-c4ccoc4)ncnc32)[C@H](O)[C@@H]1O"
assay_target = "CCRF-CEM"
prefix_operator = "="
value_reported = 5.72

[[record]]
mol_smiles = "OC[C@H]1O[C@@H](n2cc(Cl)c3c(-c4ccccc4)ncnc32)[C@H](O)[C@@H]1O"
assay_target = "CCRF-CEM"
prefix_operator = "="
value_reported = 6.04

[[record]]
mol_smiles = "OC[C@H]1O[C@@H](n2cc(F)c3c(-c4cccs4)ncnc32)[C@H](O)[C@@H]1O"
assay_target = "CCRF-CEM"
prefix_operator = "="
value_reported = 6.57

[[record]]
mol_smiles = "OC[C@H]1O[C@@H](n2cc(Cl)c3c(-c4ccco4)ncnc32)[C@H](O)[C@@H]1O"
assay_target = "CCRF-CEM"
prefix_operator = "="
value_reported = 5.42


* * *

# Test Protocol: Cytostatic activity against human Hs578 cells after 5 days by SRB assay
# Format: functional
# Protocol Conditions: Hs578, 120 h
Experimental Readout: GI50 (µM)

[[record]]
mol_smiles = "OC[C@H]1O[C@@H](n2ccc3c(-c4cccnc4)ncnc32)[C@H](O)[C@@H]1O"
readout_unit = "µM"
prefix_operator = ">"
value_reported = 10

[[record]]
mol_smiles = "OC[C@H]1O[C@@H](n2cc(F)c3c(-c4ccccc4)ncnc32)[C@H](O)[C@@H]1O"
readout_unit = "µM"
prefix_operator = ">"
value_reported = 10

[[record]]
mol_smiles = "COc1ccc(-c2ncnc3c2ccn3[C@@H]2O[C@H](CO)[C@@H](O)[C@H]2O)cc1"
readout_unit = "µM"
prefix_operator = ">"
value_reported = 10

[[record]]
mol_smiles = "OC[C@H]1O[C@@H](n2cc(Cl)c3c(-c4ccco4)ncnc32)[C@H](O)[C@@H]1O"
readout_unit = "µM"
prefix_operator = ">"
value_reported = 10

[[record]]
mol_smiles = "OC[C@H]1O[C@@H](n2cc(F)c3c(-c4cccs4)ncnc32)[C@H](O)[C@@H]1O"
readout_unit = "µM"
prefix_operator = "="
value_reported = 0.13

[[record]]
mol_smiles = "OC[C@H]1O[C@@H](n2ccc3c(-c4ccn[nH]4)ncnc32)[C@H](O)[C@@H]1O"
readout_unit = "µM"
prefix_operator = "="
value_reported = 3.9

[[record]]
mol_smiles = "OC[C@H]1O[C@@H](n2cc(F)c3c(-c4c[nH]cn4)ncnc32)[C@H](O)[C@@H]1O"
readout_unit = "µM"
prefix_operator = "="
value_reported = 2.1

[[record]]
mol_smiles = "OC[C@H]1O[C@@H](n2cc(Cl)c3c(-c4ccccc4)ncnc32)[C@H](O)[C@@H]1O"
readout_unit = "µM"
prefix_operator = ">"
value_reported = 10

[[record]]
mol_smiles = "OC[C@H]1O[C@@H](n2ccc3c(-c4c[nH]cn4)ncnc32)[C@H](O)[C@@H]1O"
readout_unit = "µM"
prefix_operator = "="
value_reported = 1.9

[[record]]
mol_smiles = "OC[C@H]1O[C@@H](n2ccc3c(-c4ccccn4)ncnc32)[C@H](O)[C@@H]1O"
readout_unit = "µM"
prefix_operator = ">"
value_reported = 10

